# Study target: human 5-HT1A receptor (Homo sapiens)
# Sequence (P08908 whole entry): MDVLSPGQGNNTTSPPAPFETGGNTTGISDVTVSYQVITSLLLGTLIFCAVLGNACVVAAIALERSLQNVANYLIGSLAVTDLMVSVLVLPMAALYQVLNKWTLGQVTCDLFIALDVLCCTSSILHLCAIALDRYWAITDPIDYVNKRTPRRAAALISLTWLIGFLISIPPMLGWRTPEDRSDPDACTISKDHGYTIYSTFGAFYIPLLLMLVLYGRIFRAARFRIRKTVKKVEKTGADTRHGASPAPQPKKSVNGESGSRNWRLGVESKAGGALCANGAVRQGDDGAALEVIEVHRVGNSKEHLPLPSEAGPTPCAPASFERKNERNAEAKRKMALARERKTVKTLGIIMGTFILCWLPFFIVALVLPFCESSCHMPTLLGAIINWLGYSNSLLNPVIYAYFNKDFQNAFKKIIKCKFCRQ
# Experimental details: 5-HT activation potency (IP1 accumulation), 5-HT1A
# Type: cell-based
# Parameters: expressed in transfected cells
Measurement label: EC50 (nM)
# number only, unit nM dropped from output

(Q) For CN(C)CCc1c[nH]c2cccc(O)c12 [psilocin, 4-hydroxy-N,N-dimethyltryptamine] , what is its reported EC50?
(A) 1.7

###

Data export: pKi values recorded with human 5-HT2A receptor (Homo sapiens).
pKi: −log10 of the molar value.

[[record]]
compound = "OCCc1c[nH]c2cccc(O)c12 [4-HTP, 4-hydroxytryptophol]"
value_observed = "< 5.00"


(Q) For O=C(O)Cc1c[nH]c2cccc(O)c12 [4-HIAA, 4-hydroxyindole-3-acetic acid] , what is its reported pKi?
(A) < 5.00

###

Some compounds, each annotated with its measured Tmax.
# Experimental details: Metabolites in human plasma after oral psilocybin (reanalysed study samples)
# Test parameters: human, plasma, po, 30 mg

[[record]]
compound = "O=C(O)Cc1c[nH]c2cccc(O)c12 [4-HIAA, 4-hydroxyindole-3-acetic acid]"
value_observed = "~2.5 h"


(Q) For CN(C)CCc1c[nH]c2cccc(O)c12 [psilocin, 4-hydroxy-N,N-dimethyltryptamine] , what is its reported Tmax?
(A) ~2.5 h

###

# Study target: human 5-HT2A receptor (Homo sapiens, UniProt P28223)
# Sequence (P28223 whole entry): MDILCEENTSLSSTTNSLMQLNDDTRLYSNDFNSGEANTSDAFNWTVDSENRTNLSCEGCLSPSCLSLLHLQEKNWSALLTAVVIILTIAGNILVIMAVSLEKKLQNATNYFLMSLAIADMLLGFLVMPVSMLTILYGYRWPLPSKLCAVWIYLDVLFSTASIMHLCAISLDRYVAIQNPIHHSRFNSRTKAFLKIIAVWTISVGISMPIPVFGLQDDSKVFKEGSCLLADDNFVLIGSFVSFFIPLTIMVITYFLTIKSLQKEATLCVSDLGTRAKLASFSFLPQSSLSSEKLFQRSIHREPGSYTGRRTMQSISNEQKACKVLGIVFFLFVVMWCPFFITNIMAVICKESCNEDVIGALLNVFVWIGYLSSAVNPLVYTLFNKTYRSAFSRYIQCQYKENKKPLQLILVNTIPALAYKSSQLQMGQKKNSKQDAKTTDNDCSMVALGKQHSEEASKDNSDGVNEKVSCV
# Experimental details: 5-HT activation potency (IP1 accumulation), 5-HT2A
# Test parameters: NIH/3T3 cells, read-out: h5-HT2A Activation potency EC50 ± SD
Measurement label: EC50

[[record]]
molecule = "O=C(O)Cc1c[nH]c2cccc(O)c12 [4-HIAA, 4-hydroxyindole-3-acetic acid]"
value_observed = "> 10 µM"


Here is the next item to consider.
(Q) For OCCc1c[nH]c2cccc(O)c12 [4-HTP, 4-hydroxytryptophol] , what is its reported EC50?
(A) > 10 µM

###

# Experimental details: Pharmacokinetics and metabolites in mouse plasma after oral psilocybin
# Assay type: in vivo, C57BL/6J mice
# Test parameters: male, C57BL/6J, mouse, plasma, po, 3 mg/kg, mouse plasma, 3 mg/kg psilocybin p.o., n = 5; read-out: elimination half-life t1/2 (mean ± SD) (converted)
Some compounds, each annotated with its measured half-life.
# number only, unit min dropped from output

[[record]]
compound = "O=C(O)Cc1c[nH]c2cccc(OC3O[C@H](C(=O)O)[C@@H](O)[C@H](O)[C@H]3O)c12 (stereo partly shown) [4-HIAA-glucuronide]"
measurement_label = "half-life"
units_of_measure = "min"
value_observed = 82.8

[[record]]
compound = "CN(C)CCc1c[nH]c2cccc(O)c12 [psilocin, 4-hydroxy-N,N-dimethyltryptamine]"
measurement_label = "half-life"
units_of_measure = "min"
value_observed = 54.6


(Q) For CN(C)CCc1c[nH]c2cccc(OC3O[C@H](C(=O)O)[C@@H](O)[C@H](O)[C@H]3O)c12 (stereo partly shown) [psilocin-O-glucuronide] , what is its reported half-life?
(A) 58.2

(Q) For O=C(O)Cc1c[nH]c2cccc(O)c12 [4-HIAA, 4-hydroxyindole-3-acetic acid] , what is its reported half-life?
(A) 45
